tested on: Mus musculus; assay: Toxicity in ip dosed C3H X DBA2 F1 hybrid mouse […] with mouse L1210 cells on day 0 and dosed once daily on days 1 to 5 measured after 50 days; type: organism-based; conditions: in vivo, 1200 h
Class Fulfilled: LD10 at least 20 mg/kg. Class Not fulfilled: LD10 below 20 mg/kg.

Q: // inclusive: LD10 at least 20 mg/kg? input: CC[n+]1cccc2cc(NC(=O)c3ccc(C(=O)Nc4ccc(NC(=O)c5ccc6c(ccc[n+]6CC)c5)cc4)cc3)ccc21.Cc1ccc(S(=O)(=O)[O-])cc1.Cc1ccc(S(=O)(=O)[O-])cc1
Ans: Fulfilled

Q: Tell me whether LD10 is at least 20 mg/kg here: COc1cccc2c(Nc3ccc(C(=O)Nc4ccc(Nc5cc[n+](C)cc5)cc4)cc3)cc[n+](C)c12.[Br-].[Br-]
Ans: Not fulfilled

Q: State whether the measured LD10 reaches 20 mg/kg, counting equality as reaching it, for C[n+]1cccc(NC(=O)c2ccc(NC(=O)/C=C/c3ccc(C(=O)Nc4ccc(C(=O)Nc5ccc[n+](C)c5)cc4)cc3)cc2)c1.Cc1ccc(S(=O)(=O)[O-])cc1.Cc1ccc(S(=O)(=O)[O-])cc1
Ans: Fulfilled

Q: Confirm if LD10 reported for the molecule C[n+]1cccc(NC(=O)c2ccc(NC(=O)C34CCC(C(=O)Nc5ccc(C(=O)Nc6ccc[n+](C)c6)cc5)(CC3)CC4)cc2)c1.Cc1ccc(S(=O)(=O)[O-])cc1.Cc1ccc(S(=O)(=O)[O-])cc1 is 20 mg/kg or above.
Ans: Fulfilled

Q: Does LD10 meet or surpass 20 mg/kg for CCC[n+]1ccc(-c2ccc(-c3ccc(-c4ccc(NC(=O)c5ccc(C(=O)Nc6ccc(-c7ccc(-c8ccc(-c9cc[n+](CCC)cc9)cc8)cc7)cc6)cc5)cc4)cc3)cc2)cc1.Cc1ccc(S(=O)(=O)[O-])cc1.Cc1ccc(S(=O)(=O)[O-])cc1 ?
Ans: Not fulfilled

New cases:
Q: hey, is LD10 for this one >= 20 mg/kg? CCC[n+]1cc(-c2ccc(NC(=O)c3ccc(C(=O)Nc4ccc(-c5c[n+](CCC)c(N)nc5N)cc4)cc3)cc2)c(N)nc1N.Cc1ccc(S(=O)(=O)[O-])cc1.Cc1ccc(S(=O)(=O)[O-])cc1
Ans: Fulfilled

Q: Please check the record C[n+]1cccc(NC(=O)c2ccc(NC(=O)c3ccc(C(=O)Nc4ccc(N/N=N/c5ccc(C(=N)N)cc5)cc4)cc3)cc2)c1.Cc1ccc(S(=O)(=O)O)cc1.Cc1ccc(S(=O)(=O)[O-])cc1 and state if its LD10 is at or above 20 mg/kg.
Ans: Fulfilled

Q: Can CCC[n+]1cccc(NC(=O)c2ccc(NC(=O)c3ccc(C(=O)Nc4ccc(C(=O)Nc5ccc[n+](CCC)c5)c(OC)c4)cc3)cc2OC)c1.Cc1ccc(S(=O)(=O)[O-])cc1.Cc1ccc(S(=O)(=O)[O-])cc1 be said to have LD10 at or above 20 mg/kg?
Ans: Fulfilled

----------
assay: Displacement of ethidium from poly[d(A-T)]-poly[d(A-T)] DNA by fluorimetric method
Each entry below carries its reported C50.
Numeric only. Scale: µM

Q: Which C50 value is on record for CCC[n+]1ccc(Nc2ccc(NC(=O)c3ccc(Nc4cc[n+](CCC)c5ccccc45)cc3)cc2)cc1.[Br-].[Br-] ?
Ans: 0.2

Q: Return reported C50; argument: CCCC[n+]1cccc(C(=O)Nc2ccc(NC(=O)c3ccc(C(=O)Nc4ccc5c(ccc[n+]5CCCC)c4)cc3)cc2)c1.Cc1ccc(S(=O)(=O)[O-])cc1.Cc1ccc(S(=O)(=O)[O-])cc1
Ans: 2.1

Q: Any idea what its C50 is? The compound is C/C(=C(/C)c1ccc(Nc2cc[n+](C)c3ccc(N)cc23)cc1)c1ccc(Nc2cc[n+](C)cc2)cc1.[Cl-].[Cl-]
Ans: 0.9

***
Q: What value of C50 has been reported for the following compound? CC[n+]1ccc(Nc2ccc(NC(=O)c3ccc(Nc4cc(C)[n+](CC)c5ccc(N)cc45)cc3N)cc2)cc1.[I-].[I-]
Ans: 0.31

Q: Given the entry Br.C/C(=N\NC(=N)N)c1ccc(NC(=O)c2ccc(Nc3cc[n+](C)c4ccccc34)cc2)cc1.[Br-] , report its measured C50.
Ans: 0.39

Q: Query (compound): C[n+]1cccc(NC(=O)c2ccc(NC(=O)c3ccc(C(=O)Nc4ccc(C(=O)Nc5ccc[n+](C)c5)c(Cl)c4)cc3)cc2Cl)c1.Cc1ccc(S(=O)(=O)[O-])cc1.Cc1ccc(S(=O)(=O)[O-])cc1 ; field requested: C50
Ans: 0.99

----------
tested on: L1210; assay: Antitumor activity against mouse L1210 cells […] in ip dosed C3H X DBA2 F1 hybrid mouse on day 0 and dosed once daily on days 1 to 5 assessed as increase in life span relative to control; format: functional
quantity kind: D40 (mg/kg)
Expressed in mg/kg, but write only the number.

Known results for molecules:
Q: Which D40 value is on record for C[n+]1ccc(Nc2ccc(NC(=O)c3ccc(Nc4cc[n+](C)c5ccc(N)cc45)cc3)cc2)cc1.[Br-].[Br-] ?
Ans: 1.2

Q: Recorded D40 of Cc1cc(Nc2ccc(NC(=O)c3ccc(C(=O)Nc4ccc(C(=O)Nc5ccc[n+](C)c5)cc4)cc3)cc2)nc(N)n1.I.[I-] , please.
Ans: 10

Q: Please report the recorded D40 for CC[n+]1cc(-c2ccc(NC(=O)c3ccc(Nc4cc[n+](CC)c5ccccc45)cc3)cc2)c(N)nc1N.[I-].[I-] .
Ans: 3.3

Continuing:
Q: Consider the molecule CCC[n+]1ccc(-c2ccc(NC(=O)c3ccc(Nc4cc[n+](CCC)c5ccccc45)cc3)cc2)cc1.[Br-].[Br-] and give its measured D40.
Ans: 4.8

Q: Report D40 for C[n+]1ccc(Nc2ccc(NC(=O)/C=C/c3ccc(Nc4cc[n+](C)c5ccc(N)cc45)cc3)cc2)cc1.Cc1ccc(S(=O)(=O)[O-])cc1.Cc1ccc(S(=O)(=O)[O-])cc1 please.
Ans: 1.6

Q: Find the recorded D40 belonging to C[n+]1cccc(NC(=O)c2ccc(NC(=O)c3cccc(C(=O)Nc4ccc(C(=O)Nc5ccc[n+](C)c5)cc4)c3)cc2)c1.Cc1ccc(S(=O)(=O)[O-])cc1.Cc1ccc(S(=O)(=O)[O-])cc1 and report it.
Ans: 25

----------
tested on: Mus musculus; assay: Toxicity in ip dosed C3H X DBA2 F1 hybrid mouse […] with mouse L1210 cells on day 0 and dosed once daily on days 1 to 5 measured after 50 days; type: organism-based; details: in vivo, 1200 h
LD10 listing for selected compounds.
Reply with the number and its unit after it.

Example results:
Q: GET /values?readout=LD10&item= C[n+]1ccc(-c2ccc(NC(=O)c3ccc(Nc4cc[n+](C)c5ccccc45)cc3)cc2)cc1.Cc1ccc(S(=O)(=O)[O-])cc1.Cc1ccc(S(=O)(=O)[O-])cc1
Ans: 15 mg/kg

Q: Give the measured LD10 of C[n+]1cccc(NC(=O)c2ccc(C(=O)Nc3ccc[n+](C)c3)cc2)c1.Cc1ccc(S(=O)(=O)[O-])cc1.Cc1ccc(S(=O)(=O)[O-])cc1 .
Ans: 5 mg/kg

Further cases:
Q: Suppose we examine the compound CCC[n+]1cccc(NC(=O)c2ccc(NC(=O)c3ccc(C(=O)Nc4ccc(C(=O)Nc5ccc[n+](CCC)c5)cc4)c(C)c3)cc2)c1.Cc1ccc(S(=O)(=O)[O-])cc1.Cc1ccc(S(=O)(=O)[O-])cc1 ; what LD10 value has been reported?
Ans: 30 mg/kg

----------
test: Lipophilic-hydrophilic balance, Rm of the compound by partition chromatography; type: physicochemical
quantity kind: Rm
Output spec: single numeric token, no unit.

The examples below pair each entry with its known result.
Q: // Rm lookup, key: C[n+]1cccc(NC(=O)c2ccc(NC(=O)c3ccc(C(=O)Nc4ccc(NC(=N)NC(=N)N)cc4)cc3)cc2)c1.I.[I-]
Ans: -0.4

Q: Item under review: C[n+]1ccc(Nc2ccc(NC(=O)c3ccc(Nc4cc[n+](C)c5ccccc45)cc3N)cc2)cc1.[I-].[I-] . Reported Rm?
Ans: 0.24

API: the following record is the query input.
Q: Any idea what Rm was measured for CC[n+]1cccc(NC(=O)c2ccc(NC(=O)c3ccc(C(=O)Nc4ccc5c(ccc[n+]5CC)c4)cc3)cc2)c1.Cc1ccc(S(=O)(=O)[O-])cc1.Cc1ccc(S(=O)(=O)[O-])cc1 ?
Ans: 0.09

----------
assay: Lipophilic-hydrophilic balance, Rm of the compound by partition chromatography; type: physicochemical
quantity kind: Rm
# respond with the number and nothing more

Q: Can you share its Rm? I mean this molecule: CCC[n+]1cccc(-c2ccc(NC(=O)/C=C/c3ccc(C(=O)Nc4ccc(-c5ccc(-c6ccc(-c7ccc[n+](CCC)c7)cc6)cc5)cc4)cc3)cc2)c1.Cc1ccc(S(=O)(=O)[O-])cc1.Cc1ccc(S(=O)(=O)[O-])cc1
Ans: 0.02

Q: Entry CCC[n+]1cccc(NC(=O)c2ccc(NC(=O)c3ccc(C(=O)Nc4ccc(C(=O)Nc5ccc[n+](CCC)c5)c(N)c4)c(N)c3)cc2N)c1.Cc1ccc(S(=O)(=O)[O-])cc1.Cc1ccc(S(=O)(=O)[O-])cc1 : reported Rm = ?
Ans: -0.51

Q: # get_value(readout='Rm', item= CC[n+]1ccccc1Nc1ccc(NC(=O)c2ccc(C(=O)Nc3ccc(Nc4cccc[n+]4CC)cc3)cc2)cc1.[I-].[I-] )
Ans: 0.53

Q: Which Rm reading was recorded for the molecule C[n+]1ccc(Nc2ccc(C(=O)Nc3ccc(Nc4cc[n+](C)c5ccc(N)cc45)c(N)c3)cc2)cc1.Cc1ccc(S(=O)(=O)[O-])cc1.Cc1ccc(S(=O)(=O)[O-])cc1 ?
Ans: -0.15

API: the following record is the query input.
Q: Form field: reported Rm of CCC[n+]1cccc(-c2ccc(NC(=O)c3ccc(C(=O)Nc4ccc(-c5ccc(-c6ccc(-c7ccc[n+](CCC)c7)cc6)cc5)cc4)cc3)cc2)c1.Cc1ccc(S(=O)(=O)[O-])cc1.Cc1ccc(S(=O)(=O)[O-])cc1
Ans: -0.25
